Origin of measurements: ChEMBL document CHEMBL2163314

- TGT: Lysosomal acid glucosylceramidase (Homo sapiens, UniProt P04062)
- Sequence (P04062 whole entry): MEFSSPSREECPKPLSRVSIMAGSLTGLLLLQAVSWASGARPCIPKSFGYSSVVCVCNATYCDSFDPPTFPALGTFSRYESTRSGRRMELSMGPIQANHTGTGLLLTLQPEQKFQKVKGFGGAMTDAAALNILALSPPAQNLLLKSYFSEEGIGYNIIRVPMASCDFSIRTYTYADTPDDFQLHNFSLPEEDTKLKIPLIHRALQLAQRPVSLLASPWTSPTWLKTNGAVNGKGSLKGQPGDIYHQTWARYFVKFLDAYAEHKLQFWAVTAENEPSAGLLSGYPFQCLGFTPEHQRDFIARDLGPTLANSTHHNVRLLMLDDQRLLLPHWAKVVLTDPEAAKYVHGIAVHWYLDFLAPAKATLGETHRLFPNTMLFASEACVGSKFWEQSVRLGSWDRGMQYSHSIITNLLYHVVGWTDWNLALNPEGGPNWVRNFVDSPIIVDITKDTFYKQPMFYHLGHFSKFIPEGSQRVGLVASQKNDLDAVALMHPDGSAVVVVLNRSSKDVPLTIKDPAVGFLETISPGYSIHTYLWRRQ
- PROCEDURE_SUMMARY: Competitive inhibition of recombinant Imiglucerase using 4-methylumbelliferyl-beta-D-glucopyranoside as substrate preincubated for 30 mins before substrate addition at pH 5.2 by Dixon plot assay
pIC50: −log10 of the molar value.
// values below are reported pIC50
TEST_READOUT: pIC50

STRUCTURE_STRING | MEAS_VALUE
CCCCCCCCCN[C@H]1[C@H](O)[C@@H](O)[C@H](O)[C@@H](O)[C@@H]1O | 5.41
CCCCCCCCCO[C@H]1[C@@H](N)[C@H](O)[C@@H](O)[C@H](O)[C@H]1O.Cl | 6.35
CCCCCCCCCN[C@H]1[C@H](O)[C@@H](O)[C@H](O)[C@@H](O)[C@@H]1OC.Cl | 5.36
CCCCCCCCCN[C@@H]1[C@H](O)[C@H](O)[C@@H](O)[C@H](O)[C@H]1O.Cl | 7.10
CCCCCCCCCN[C@H]1[C@H](O)[C@@H](O)[C@H](O)[C@@H](O)[C@@H]1OCCCCCCCCC.Cl | 6.17

* * *

- PROCEDURE_SUMMARY: Stabilization of recombinant imiglucerase at 1 uM at 48 degC after 60 mins by fluorimetry relative to incubation at 37 degC

STRUCTURE_STRING | Ratio
CCCCCCCCCN[C@H]1[C@H](O)[C@@H](O)[C@H](O)[C@@H](O)[C@@H]1OCCCCCCCCC.Cl | 5.2
CCCCCCCCCN[C@@H]1[C@H](O)[C@H](O)[C@@H](O)[C@H](O)[C@H]1O.Cl | 5
CCCCCCCCCO[C@H]1[C@@H](N)[C@H](O)[C@@H](O)[C@H](O)[C@H]1O.Cl | 2.2
CCCCCCCCCN(CCCCCCCCC)[C@@H]1[C@H](O)[C@H](O)[C@@H](O)[C@H](O)[C@H]1O.Cl | 1.2
CCCCCCCCCN[C@H]1[C@H](O)[C@@H](O)[C@H](O)[C@@H](O)[C@H]1OCCCCCCCCC.Cl | 29
CCCCCCCCCN[C@H]1[C@H](O)[C@@H](O)[C@H](O)[C@@H](O)[C@H]1OC.Cl | 2
